Where do the numbers come from? From PubChem BioAssay (NCI).

- System: OVCAR-5 ovarian
- EXPERIMENT SUMMARY: NCI tumour cell line growth inhibition, 48 h
Exercise: state measured TGI for each of the compounds provided.

Form field: TGI recorded for `O=C(Nc1cccc(C(F)(F)F)c1)c1cc(Br)cc(Br)c1O` with OVCAR-5 ovarian (enter value)
> 10 µM

Form field: TGI recorded for OC(COc1cccc2ccccc12)CN1CCN(c2ccccc2Cl)CC1 (centres undefined) with OVCAR-5 ovarian (enter value)
24.1 µM

Form field: TGI recorded for `COc1ccc2nc3cccc(C(=O)NCCN(C)C)c3nc2c1` with OVCAR-5 ovarian (enter value)
6.17 µM

Form field: TGI recorded for `c1ccc2nc(OCCN3CC3)ccc2c1` with OVCAR-5 ovarian (enter value)
31.5 µM

Form field: TGI recorded for `CC(=O)N1CCN(CCOc2ccc(C3CCN(C4=Nn5c(nnc5C(F)(F)F)CC4)CC3)cc2)CC1` with OVCAR-5 ovarian (enter value)
> 100 µM

Form field: TGI recorded for `C#CCN(C)C(=O)N(CC#C)N=O` with OVCAR-5 ovarian (enter value)
> 100 µM

Form field: TGI recorded for `CCOC(=S)SCN1C(=O)c2ccccc2S1(=O)=O` with OVCAR-5 ovarian (enter value)
29.9 µM

Form field: TGI recorded for `CC(=O)O[C@H]1C=CC23OC(=O)[C@]1(C)[C@H]2[C@H](C(=O)O)C12CC(=O)[C@@](CO)(CC[C@H]13)C2` with OVCAR-5 ovarian (enter value)
> 100 µM

Form field: TGI recorded for `CCCCCCNC(=O)Oc1ccc(/C(=C(\C)c2ccccc2)c2ccc(OCCN(CC)CC)cc2)cc1` with OVCAR-5 ovarian (enter value)
13.2 µM

Form field: TGI recorded for CO[C@H](C(=O)O)[C@@H]1Cc2cc3cc(OC4CC(OC5CC(O)C(O)C(C)O5)C(O)C(C)O4)c(C)c(O)c3c(O)c2C(=O)[C@H]1OC1CC(OC2CC(OC3CC(C)(O)C(O)C(C)O3)C(O)C(C)O2)C(O)C(C)O1 (some centres undefined) with OVCAR-5 ovarian (enter value)
> 32.5 µM

Form field: TGI recorded for COc1cc(C2c3cc4c(cc3[C@@H](Nc3ccc(N)cc3)C3COC(=O)[C@H]23)OCO4)cc(OC)c1O (some centres undefined) with OVCAR-5 ovarian (enter value)
31.6 µM

Form field: TGI recorded for `Nc1c(-c2nc3ccccc3[nH]2)sc(=S)n1-c1ccc(Cl)cc1` with OVCAR-5 ovarian (enter value)
> 100 µM

Form field: TGI recorded for `COC[C@@H](Cc1ccc(OC)c(OC)c1)[C@@H](COC)Cc1ccc(OC)c(OC)c1` with OVCAR-5 ovarian (enter value)
> 100 µM

Form field: TGI recorded for CC1(C)CC[C@]2(C(=O)O)[C@H](O)C[C@]3(C)C(=CC[C@@H]4[C@@]5(C)CC[C@H](OC6OC(C(=O)O)C(O)C(O)C6O)C(C)(C)[C@@H]5CC[C@]43C)[C@@H]2C1 (some centres undefined) with OVCAR-5 ovarian (enter value)
> 100 µM

Form field: TGI recorded for OC(c1ccccc1)(c1cccnc1)C(O)(c1ccccc1)c1cccnc1 (centres undefined) with OVCAR-5 ovarian (enter value)
> 100 µM

Form field: TGI recorded for `O=C(CCl)Nc1cc(O)c2c(c1)C(=O)c1cccc(O)c1C2=O` with OVCAR-5 ovarian (enter value)
5.19 µM

Form field: TGI recorded for `CCN(CC)CCC(=O)c1ccc(Oc2ccc(F)cc2)cc1` with OVCAR-5 ovarian (enter value)
35 µM

Form field: TGI recorded for `O=C1c2cc([N+](=O)[O-])sc2C(=O)c2ccsc21` with OVCAR-5 ovarian (enter value)
3.22 µM

Form field: TGI recorded for C=CCC(SC)C1=C(C)C(=O)c2ccccc21 (centres undefined) with OVCAR-5 ovarian (enter value)
> 10 µM

Form field: TGI recorded for `CC[C@H](C)C1=C(OC(C)=O)[N@+]2([O-])Oc3ccc(-c4c(OC(C)=O)c(OC(C)=O)c(-c5ccc(OC(C)=O)cc5)c(OC(C)=O)c4OC(C)=O)cc3O[C@]2([C@@H](C)CC)C(=O)N1OC(C)=O` with OVCAR-5 ovarian (enter value)
> 50 µM

Form field: TGI recorded for `COc1cc2c(cc1OC)-c1ncc3cc4c(cc3c1C2)OCO4` with OVCAR-5 ovarian (enter value)
97 µM

Form field: TGI recorded for O=C1NC2(C=Cc3c(ccc4ccccc34)O2)Oc2ccccc21 (centres undefined) with OVCAR-5 ovarian (enter value)
> 100 µM

Form field: TGI recorded for `COc1cccc(C2=C(c3cn(C)c4cccc(OC)c34)C(=O)NC2=O)c1` with OVCAR-5 ovarian (enter value)
> 25 µM

Form field: TGI recorded for OC(CN1CCCCC1)c1ccc(/C=C/c2ccc(Cl)cc2)cc1 (centres undefined) with OVCAR-5 ovarian (enter value)
> 100 µM

Form field: TGI recorded for `COc1cc2c(c(OC)c1OC)-c1ccc(SC)cc1C(=O)CC2` with OVCAR-5 ovarian (enter value)
> 100 µM

Form field: TGI recorded for `C=CC1(c2ccc(OC)cc2)OCCCO1` with OVCAR-5 ovarian (enter value)
> 100 µM

Form field: TGI recorded for C#CCCCC(=O)N(C(=O)CS(=O)CC)c1ccccc1 (centres undefined) with OVCAR-5 ovarian (enter value)
> 100 µM

Form field: TGI recorded for `Cc1cc(O)c(C(C)C)cc1N=Cc1ccccc1O` with OVCAR-5 ovarian (enter value)
41.2 µM

Form field: TGI recorded for `CCCCCCCCCCCCCCCCP(=O)([O-])OCC[N+](C)(C)C` with OVCAR-5 ovarian (enter value)
21.8 µM

Form field: TGI recorded for `O=[N+]([O-])c1cc(F)c2cccnc2c1O` with OVCAR-5 ovarian (enter value)
> 100 µM

Form field: TGI recorded for `c1ccc(CCn2cncn2)cc1` with OVCAR-5 ovarian (enter value)
> 100 µM

Form field: TGI recorded for O=[As]c1ccc(C(=O)c2ccc(Oc3ccccc3)cc2)cc1 (centres undefined) with OVCAR-5 ovarian (enter value)
0.264 µM

Form field: TGI recorded for O=C(O)CC(O)(C(=O)O)C(O)C(=O)O (centres undefined) with OVCAR-5 ovarian (enter value)
> 1000 µM

Form field: TGI recorded for COc1ccc(C2C(Cl)C(=O)N2NC(=O)Cc2ccccc2)cc1OC (centres undefined) with OVCAR-5 ovarian (enter value)
> 100 µM
